Hi there, I'd appreciate the recorded cell viability for every entry that follows.
Tested on: Caco-2
Test: cell viability relative to DMSO; higher = less toxic
Details: 72 h; 1 nM
Numbers only, in %.

| Molecule | cell viability / % |
| --- | --- |
| CCc1cc(Cl)c(OC)c(C(=O)NC[C@@H]2CCCN2CC)c1O [eticlopride] | 102 |
| Nc1nc(Nc2ccc(S(N)(=O)=O)cc2)nn1C(=O)c1c(F)cccc1F | 107 |
| O=C(O)c1cc2cccc([N+](=O)[O-])c2[nH]1 | 98 |
| C=C1c2cccc(O)c2C(=O)C2=C(O)[C@]3(O)C(=O)C(C(N)=O)=C(O)[C@@H](N(C)C)[C@@H]3[C@@H](O)[C@H]12 [methacycline] | 98.1 |
| NCC(=O)N1C[C@H](NC(=O)c2ccccc2)C[C@H]1C(=O)O [danegaptide] | 98.3 |
| OC[C@H]1O[C@@H](c2ccc(F)c(Cc3cc4ccccc4s3)c2)[C@H](O)[C@@H](O)[C@@H]1O [ipragliflozin-L-proline] | 108 |

Take each entry in turn and give its cell viability.
1. C[C@H](CCC(=O)O)[C@H]1CC[C@H]2[C@@H]3C(=O)C[C@@H]4CC(=O)CC[C@]4(C)[C@H]3CC(=O)[C@]12C [dehydrocholate-acid]
2. FC(F)(F)c1ccccc1-c1cc(C(F)(F)F)c2[nH]c(C3=NOC4(CCCCC4)C3)nc2c1 [TC-I-2014]
3. C[N+](C)(C)CC#CCN1CCCC1=O [oxotremorine-M]
4. CCOc1ccc(-c2ccc(Cn3c(CC(C)(C)C(=O)O)c(SC(C)(C)C)c4cc(OCc5ccc(C)cn5)ccc43)cc2)cn1
5. Cc1cc(C)c2nc(-c3ccccn3)cc(C(=O)Nc3ccc(S(=O)(=O)Nc4onc(C)c4C)cc3)c2c1 [ML193]

[95.5, 91.9, 102, 98.4, 95.2]

----------
Please provide measured relative viability EC50 for the entries that follow.
Test system: HepG2
Assay: relative viability EC50 (midpoint between 100% and the lowest measured viability); higher = less toxic
Details: 72 h
Counter-ions that a name gives are not always drawn.

Below, 3 compounds whose answers are already recorded.
| Compound | relative viability EC50 |
| --- | --- |
| NCC(=O)N1C[C@H](NC(=O)c2ccccc2)C[C@H]1C(=O)O [danegaptide] | > 10 µM |
| CSc1ccc(C(=O)c2[nH]c(=O)[nH]c2C)cc1 | > 10 µM |
| Cc1cc(C)c2c(c1)[C@@H](N(Cc1cc(C(F)(F)F)cc(C(F)(F)F)c1)c1nnn(C)n1)CCCN2C[C@H]1CC[C@H](C(=O)O)CC1 | > 10 µM |

Would you be so kind as to report relative viability EC50 for each listed record?
1. FC(F)(F)C(F)(F)C(F)(F)N(C(F)(F)C(F)(F)C(F)(F)F)C(F)(F)C(F)(F)C(F)(F)F
2. CN1CCN(c2c(F)cc3c(=O)c(C(=O)O)cn4c3c2SCC4)CC1
3. O=C1COc2c(CCNCCN(C(=O)CCNCCc3ccc(Cl)c(Cl)c3)C3CCCCC3)ccc(O)c2N1
4. CCOC(=O)C1=C(N)Oc2ccc(Br)cc2C1C(C#N)C(=O)OCC (configuration not stated)
5. CC(C)c1ccccc1Cc1cc(C(=O)Nc2ccc(S(=O)(=O)c3ccccc3C(C)(C)C)cc2)c(O)c(O)c1O
6. O=C(NCCN1CCN(c2ncccn2)CC1)C12CC3CC(CC(C3)C1)C2
7. O=C(CN1CCN(C(=O)c2ccco2)CC1)Nc1cc(C(F)(F)F)ccc1Cl

> 10 µM
> 10 µM
> 10 µM
> 10 µM
0.704 µM
> 10 µM
> 10 µM

Okay, here is my list. What is relative viability EC50 for each of these?
1. CC/C(=C(\c1ccc(O)cc1)c1ccc(OCCNC)cc1)c1ccccc1 [Endoxifen HCl]
2. N#Cc1cc(NC(=O)C(=O)O)c(Cl)c(NC(=O)C(=O)O)c1 [lodoxamide]
3. CN1CCN(c2ccc3nc(-c4c(N)c5c(F)cccc5[nH]c4=O)[nH]c3c2)CC1
4. C[C@H](NC(=O)Cc1cc(F)cc(F)c1)C(=O)N[C@@H]1C(=O)N(C)c2ccccc2-c2ccccc21
5. CNC(=O)c1cc(COc2nnc(Nc3ccc(Cl)cc3)c3ccoc23)ccn1
6. CCS(=O)(=O)c1cccc(-c2cc(C(=O)NC3CCN(C)CC3)c(C)c3[nH]c4ncc(C)cc4c23)c1

3.53 µM
> 10 µM
0.923 µM
> 10 µM
> 10 µM
0.439 µM

For each of the items listed, what is its relative viability EC50?
1. Nc1ccc(C(=O)O)cc1 [potassium-p-aminobenzoate]
2. Cc1ccc(S(=O)(=O)/C=C/C#N)cc1
3. CC(C)N1Cc2cc(S(C)(=O)=O)ccc2N(CCN2CC=C(c3c[nH]c4cc(F)ccc34)CC2)S1(=O)=O
4. NCCCS(=O)(=O)O [tramiprosate]
5. NCCOB(c1ccccc1)c1ccccc1
6. COC(=O)Nc1nc2cc(C(=O)c3ccc(F)cc3)ccc2[nH]1
7. OCCCNc1ccccc1
8. NC(=O)c1ccc(-c2nc(-c3ccc4c(c3)OCCO4)c(-c3ccccn3)[nH]2)cc1

1: > 10 µM; 2: 2.31 µM; 3: > 10 µM; 4: > 10 µM; 5: > 10 µM; 6: 0.619 µM; 7: > 10 µM; 8: > 10 µM

Batch of 3 compounds: report relative viability EC50 for each.
1. O=C(O)c1cc(O)c2c(c1)[C@H]([C@H]1c3cc(C(=O)O)cc(O)c3C(=O)c3c(O[C@@H]4O[C@H](CO)[C@@H](O)[C@H](O)[C@H]4O)cccc31)c1cccc(O[C@@H]3O[C@H](CO)[C@@H](O)[C@H](O)[C@H]3O)c1C2=O [sennoside-A]
2. N#Cc1cccc(-c2nc(-c3cccnc3)no2)c1
3. N[C@@H]1CCN(c2cccnc2)C1

> 10 µM
> 10 µM
> 10 µM

Data provenance: the supplement of paper PMC13380429
